Entries annotated with measured peptide exchange yield
Target: T1, HLA-A*02:01 (human)
T1 construct: the tested peptide takes its place; also called peptide-receptive MHC molecules; MHC class I
Assay: UV-ligand exchange, anti-β2m ELISA; grade of peptide exchange yield

[ask] I am curious: what peptide exchange yield value has been reported for SLYGYLRGA [SLYGYLRGA (SEQ ID NO: 142)] ?
[reply] 50 to 75%

[ask] I am curious: what peptide exchange yield value has been reported for ILAQVGFSV [ILAQVGFSV (SEQ ID NO: 44)] ?
[reply] 50 to 75%

[ask] I am curious: what peptide exchange yield value has been reported for ALFVRLLAL [ALFVRLLAL (SEQ ID NO: 18)] ?
[reply] 20 to 50%

[ask] I am curious: what peptide exchange yield value has been reported for KLSENAGIQSL [KLSENAGIQSL (SEQ ID NO: 24)] ?
[reply] 20 to 50%

[ask] I am curious: what peptide exchange yield value has been reported for SMYDGLLQA [SMYDGLLQA (SEQ ID NO: 61)] ?
[reply] 20 to 50%

More entries:
[ask] I am curious: what peptide exchange yield value has been reported for KLADIQIEQL [KLADIQIEQL (SEQ ID NO: 89)] ?
[reply] 50 to 75%

[ask] I am curious: what peptide exchange yield value has been reported for VLGVIWGV [VLGVIWGV (SEQ ID NO: 70)] ?
[reply] ≥ 75%

[ask] I am curious: what peptide exchange yield value has been reported for SLLNPPETLNL [SLLNPPETLNL (SEQ ID NO: 140)] ?
[reply] 50 to 75%
